Value source: the OligoGym collection

target-system: UFC1; note: test concentration or dose not given here
experimental-protocol: reporter assay of Huesken 2005
condition-parameters: siRNA
Oligonucleotides are written 5' to 3', each unit as a sugar letter and its base; * is a phosphorothioate linkage, no mark a phosphodiester; rarer units and linkages stand in square brackets, end groups in braces. Plain capitals give the bases only. d = 2'-deoxy (DNA); r = 2'-OH (RNA)
Each item that follows carries a reported normalised inhibition (eCFP-eYFP dual reporter).
attribute-measured: normalised inhibition (eCFP-eYFP dual reporter) (%)

substance: sense rGrCrCrArGrGrArArUrGrUrGrCrCrCrArArArUdTdT / antisense rArUrUrUrGrGrGrCrArCrArUrUrCrCrUrGrGrCdCdC
unit-descriptor: %
assay-value: 77.2
//
substance: sense rGrCrCrUrGrArCrGrGrArUrCrArUrUrUrCrArAdTdT / antisense rUrUrGrArArArUrGrArUrCrCrGrUrCrArGrGrCdAdT
unit-descriptor: %
assay-value: 117
//
substance: sense rGrArArArUrArUrGrArGrUrUrUrGrArCrArUrCdTdT / antisense rGrArUrGrUrCrArArArCrUrCrArUrArUrUrUrCdAdG
unit-descriptor: %
assay-value: 66.9
